# target.or.test.system: C-Raf kinase (SEQ ID NO: 2) (Homo sapiens, UniProt P04049, Y340D/Y341D)
# Construct: C-Raf residues 306-end; Y340D, Y341D with; GST (N); purchased Sigma
# Sequence (P04049 307-648 Y340D/Y341D): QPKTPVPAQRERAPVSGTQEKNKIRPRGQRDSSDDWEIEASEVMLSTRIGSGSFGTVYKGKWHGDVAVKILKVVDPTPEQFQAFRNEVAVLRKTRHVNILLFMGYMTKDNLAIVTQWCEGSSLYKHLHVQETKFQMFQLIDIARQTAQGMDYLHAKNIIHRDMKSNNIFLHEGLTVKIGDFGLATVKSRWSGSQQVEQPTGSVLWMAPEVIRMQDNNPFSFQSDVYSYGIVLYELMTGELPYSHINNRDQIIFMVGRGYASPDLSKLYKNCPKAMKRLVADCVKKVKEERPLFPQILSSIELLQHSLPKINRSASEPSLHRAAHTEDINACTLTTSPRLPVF
# test.name: Biochemical Assay for C-Raf (coupled pyruvate kinase/lactate dehydrogenase assay)
# cond: 1 mM ATP; read-out: CRAF (inhibition of biochemical activity, IC50)
Reported values of IC50 for individual entries

// worked examples, IC50 included
What value of IC50 has been recorded for this entry: Cc1ccc(NC(=O)c2cc(C(C)(C)F)cnn2)cc1-c1cncc(-c2cc(NC(=O)C3CC3)ncn2)c1 [Example 62]
< 100 nM

What value of IC50 has been recorded for this entry: CNCC(=O)Nc1cc(-c2cc(-c3cc(NC(=O)c4cc(C(C)(F)F)cnn4)ccc3C)ccn2)ccn1 [Example 112]
< 100 nM

***
What value of IC50 has been recorded for this entry: Cc1ccc(NC(=O)c2ccc(C(F)(F)F)nn2)cc1-c1ccnc(-c2ccnc(NC(=O)C3CC3)c2)c1 [Example 19]
< 100 nM

What value of IC50 has been recorded for this entry: CCn1cc(-c2cc(-c3cc(NC(=O)c4cc(C(F)(F)F)cnn4)ccc3C)ccn2)cn1 [Example 115]
100 to 500 nM

What value of IC50 has been recorded for this entry: Cc1ccc(NC(=O)c2cc(C(F)(F)F)cnn2)cc1-c1ccnc(-c2ccnc(NC(=O)C(F)(F)F)c2)c1 [Example 106]
< 100 nM

###

# Tested on: HPAF-II cells
# test.name: HPAF-II Cell Proliferation Assay
# Assay type: cell-based
# cond: Homo sapiens, HPAF-II, HPAF-II cells; Table 2; read-out: Inhibition of cell proliferation in HPAF-II (IC50 class)
readout: IC50

What value of IC50 has been recorded for this entry: Cc1ccc(NC(=O)c2cc(C(C)(F)F)cnn2)cc1-c1ccnc(-c2ccnc(NC(=O)C3CC3)c2)c1 [Example 57]
< 100 nM

What value of IC50 has been recorded for this entry: Cc1ccc(NC(=O)c2cc(C(C)(F)F)cnn2)cc1-c1ccnc(-c2cscn2)c1 [Example 143]
100 to 500 nM

What value of IC50 has been recorded for this entry: Cc1ccc(NC(=O)c2cc(C(F)(F)F)cnn2)cc1-c1ccnc(-c2ccsc2)c1 [Example 146]
< 100 nM

What value of IC50 has been recorded for this entry: COCC(=O)Nc1cc(-c2nccc(-c3cc(NC(=O)c4cc(C(F)(F)F)cnn4)ccc3C)n2)ccn1 [Example 10]
500 to 1000 nM

What value of IC50 has been recorded for this entry: Cc1cc(-c2cc(NC(=O)c3cc(C(F)(F)F)cnn3)cnc2C)cc(-c2ccnc(NC(=O)C3CC3)c2)n1 [Example 35]
1000 to 10000 nM

***
What value of IC50 has been recorded for this entry: Cc1ccc(NC(=O)c2cc(C(C)C)cnn2)cc1-c1ccnc(-c2ccnc(NC(=O)C3CC3)c2)c1 [Example 38]
100 to 500 nM

What value of IC50 has been recorded for this entry: Cc1ccc(NC(=O)c2cnc(C(F)(F)F)cn2)cc1-c1ccnc(-c2ccnc(NC(=O)C3CC3)c2)c1 [Example 56]
1000 to 10000 nM

###

# Test system: Pa16c cells
# test.name: Pa16c Cell Proliferation Assay
# Format: cell-based
# cond: Table 2, read-out: Inhibition of cell proliferation in Pa16c (IC50 class)
readout: IC50

// worked examples, IC50 included
What value of IC50 has been recorded for this entry: Cc1ccc(NC(=O)c2cc(C(F)(F)F)cnn2)cc1-c1ccnc(-c2ccnc(NCC(F)(F)F)c2)c1 [Example 53]
1000 to 10000 nM

What value of IC50 has been recorded for this entry: Cc1cnc(NC(=O)c2cc(C(F)(F)F)cnn2)cc1-c1ccnc(-c2ccnc(NC(=O)C3CC3)c2)c1 [Example 36]
1000 to 10000 nM

What value of IC50 has been recorded for this entry: Cc1ccc(NC(=O)c2cnc(C(F)(F)F)nc2)cc1-c1ccnc(-c2ccnc(NC(=O)C3CC3)c2)c1 [Example 17]
< 100 nM

What value of IC50 has been recorded for this entry: CNCC(=O)Nc1cc(-c2cc(-c3cc(NC(=O)c4cc(C5CC5)cnn4)ccc3C)ccn2)ccn1 [Example 107]
100 to 500 nM

What value of IC50 has been recorded for this entry: Cc1ccc(NC(=O)c2ccc(C(F)F)nn2)cc1-c1ccnc(-c2ccnc(NC(=O)C3CC3)c2)c1 [Example 58]
1000 to 10000 nM

***
What value of IC50 has been recorded for this entry: Cc1ccc(NC(=O)c2cc(C(C)C)cnn2)cc1-c1ccnc(-c2ccnc(NC(=O)C3CC3)c2)c1 [Example 38]
500 to 1000 nM

What value of IC50 has been recorded for this entry: Cc1ccc(NC(=O)c2cc(OC(F)F)cnn2)cc1-c1ccnc(-c2ccnc(NC(=O)C3CC3)c2)c1 [Example 134]
100 to 500 nM

What value of IC50 has been recorded for this entry: Cc1ccc(NC(=O)c2cc(C(F)(F)F)cnn2)cc1-c1ccnc(-c2ccnc(/N=C/N(C)C)c2)c1 [Example 37]
< 100 nM

What value of IC50 has been recorded for this entry: Cc1ccc(NC(=O)c2cc(C(C)(F)F)cnn2)cc1-c1ccnc(-c2ccoc2)c1 [Example 149]
100 to 500 nM

What value of IC50 has been recorded for this entry: Cc1ccc(NC(=O)c2cc3c(nn2)CCC3)cc1-c1ccnc(-c2ccnc(NC(=O)C3CC3)c2)c1 [Example 98]
1000 to 10000 nM

What value of IC50 has been recorded for this entry: Cc1ccc(NC(=O)c2cncc(C(C)(F)F)c2)cc1-c1ccnc(-c2ccnc(NC(=O)C3CC3)c2)c1 [Example 82]
1000 to 10000 nM

What value of IC50 has been recorded for this entry: Cc1ccc(NC(=O)c2cc(Cl)cnn2)cc1-c1ccnc(-c2ccnc(NC(=O)C3CC3)c2)c1 [Example 40]
500 to 1000 nM

What value of IC50 has been recorded for this entry: CNCC(=O)Nc1cc(-c2cc(-c3cc(NC(=O)c4cc(C(F)(F)F)cnn4)ccc3C)ccn2)ccn1 [Example 88]
1000 to 10000 nM

What value of IC50 has been recorded for this entry: Cc1ccc(NC(=O)c2cnc(C(F)(F)F)nc2)cc1-c1ccnc(-c2cn[nH]c2)c1 [Example 126]
100 to 500 nM

What value of IC50 has been recorded for this entry: Cc1ccc(NC(=O)c2cccnn2)cc1-c1ccnc(-c2ccnc(NC(=O)C3CC3)c2)c1 [Example 83]
1000 to 10000 nM

Where do these numbers come from? They come from patent US20260226084A1.
